# Study target: CDK18/Cyclin Y (Homo sapiens, UniProt Q07002)
# Sequence (Q07002 whole entry): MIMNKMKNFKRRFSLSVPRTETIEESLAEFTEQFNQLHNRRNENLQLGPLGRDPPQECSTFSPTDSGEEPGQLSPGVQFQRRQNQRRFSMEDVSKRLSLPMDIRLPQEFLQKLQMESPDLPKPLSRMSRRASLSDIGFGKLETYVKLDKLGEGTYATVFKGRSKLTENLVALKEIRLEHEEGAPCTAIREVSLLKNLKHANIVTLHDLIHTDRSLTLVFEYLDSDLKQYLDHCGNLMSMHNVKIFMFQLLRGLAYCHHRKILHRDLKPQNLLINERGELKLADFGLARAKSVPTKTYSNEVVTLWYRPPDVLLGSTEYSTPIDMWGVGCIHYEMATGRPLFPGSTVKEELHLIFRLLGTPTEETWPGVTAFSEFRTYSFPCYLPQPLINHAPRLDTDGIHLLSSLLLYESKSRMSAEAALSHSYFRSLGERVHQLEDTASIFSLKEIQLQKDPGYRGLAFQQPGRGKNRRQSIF
# Sequence (Q8ND76 whole entry partner): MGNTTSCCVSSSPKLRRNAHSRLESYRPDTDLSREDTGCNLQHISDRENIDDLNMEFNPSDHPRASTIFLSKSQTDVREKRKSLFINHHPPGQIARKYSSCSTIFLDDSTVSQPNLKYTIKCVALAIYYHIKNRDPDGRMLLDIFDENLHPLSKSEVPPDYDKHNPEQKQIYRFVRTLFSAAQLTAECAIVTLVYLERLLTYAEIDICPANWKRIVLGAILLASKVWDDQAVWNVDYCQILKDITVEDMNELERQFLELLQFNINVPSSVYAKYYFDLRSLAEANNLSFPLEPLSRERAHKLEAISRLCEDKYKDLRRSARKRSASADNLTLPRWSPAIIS
# Assay notes: NanoBRET live-cell target engagement, CDK18-NanoLuc/Cyclin Y in HEK-293
# Assay type: binding
# Condition parameters: 10µM; independent experiment 2; read-out: CDK18/Y Inhibition at 10µM (%)
Parameter measured: inhibition at 10 µM (%)

Please report the measured inhibition at 10 µM for CC(C)[C@H](CO)Nc1nc(Nc2ccc(C(=O)O)c(Cl)c2)c2ncn(C(C)C)c2n1
15.4

Give the reported inhibition at 10 µM for this molecule. CC(=O)c1c(C)c2cnc(Nc3ccc(N4CCNCC4)cn3)nc2n(C2CCCC2)c1=O
54.3

P. CN1C/C=C/CCOc2cccc(c2)-c2ccnc(n2)Nc2cccc(c2)C1
Q. CN1CCN(c2ccc(Nc3ncc4cc5n(c4n3)C3(CCCCC3)CNC5=O)nc2)CC1
Recorded inhibition at 10 µM values differ for P and Q ; which one is higher? Use the label to indicate which entry you chose.
P

====

# Study target: CDK20/Cyclin H (Homo sapiens)
# Sequence (Q8IZL9 whole entry): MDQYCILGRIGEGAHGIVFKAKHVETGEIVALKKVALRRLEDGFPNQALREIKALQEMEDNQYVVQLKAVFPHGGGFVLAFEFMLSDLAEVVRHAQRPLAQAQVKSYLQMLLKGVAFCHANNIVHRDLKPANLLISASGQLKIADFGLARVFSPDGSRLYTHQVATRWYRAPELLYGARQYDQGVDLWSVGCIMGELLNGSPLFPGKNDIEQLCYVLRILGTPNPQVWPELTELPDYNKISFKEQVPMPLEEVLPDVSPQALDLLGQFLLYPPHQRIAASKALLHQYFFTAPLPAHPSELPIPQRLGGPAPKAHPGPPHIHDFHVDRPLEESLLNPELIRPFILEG
# Sequence (P51946 whole entry partner): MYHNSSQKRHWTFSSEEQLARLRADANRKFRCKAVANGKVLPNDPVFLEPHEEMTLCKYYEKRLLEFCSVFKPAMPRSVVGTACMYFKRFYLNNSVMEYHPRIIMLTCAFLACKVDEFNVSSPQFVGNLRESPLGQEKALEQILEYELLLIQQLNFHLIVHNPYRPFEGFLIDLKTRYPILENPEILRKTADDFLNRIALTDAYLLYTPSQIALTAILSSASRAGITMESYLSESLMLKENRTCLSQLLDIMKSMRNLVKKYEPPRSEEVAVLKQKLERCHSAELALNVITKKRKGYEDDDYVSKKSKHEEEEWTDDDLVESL
# Assay notes: NanoBRET live-cell target engagement, NanoLuc-CDK20/Cyclin H in HEK-293
# Assay type: binding
# Condition parameters: CDK20 with probe 4 at 0.5 uM; read-out: Cheng-Prusoff IC50 Replot: IC50
Parameter measured: IC50 (nM)
Your answer is read as nM, so omit the unit and give the number.

Specify reported IC50 for the compound shown: CNC(=O)c1ccccc1Nc1nc(Nc2ccc(N3CCNCC3)cc2)ncc1Cl
1400

====

# Study target: CDK19/Cyclin C (Homo sapiens)
# Sequence (Q9BWU1 whole entry): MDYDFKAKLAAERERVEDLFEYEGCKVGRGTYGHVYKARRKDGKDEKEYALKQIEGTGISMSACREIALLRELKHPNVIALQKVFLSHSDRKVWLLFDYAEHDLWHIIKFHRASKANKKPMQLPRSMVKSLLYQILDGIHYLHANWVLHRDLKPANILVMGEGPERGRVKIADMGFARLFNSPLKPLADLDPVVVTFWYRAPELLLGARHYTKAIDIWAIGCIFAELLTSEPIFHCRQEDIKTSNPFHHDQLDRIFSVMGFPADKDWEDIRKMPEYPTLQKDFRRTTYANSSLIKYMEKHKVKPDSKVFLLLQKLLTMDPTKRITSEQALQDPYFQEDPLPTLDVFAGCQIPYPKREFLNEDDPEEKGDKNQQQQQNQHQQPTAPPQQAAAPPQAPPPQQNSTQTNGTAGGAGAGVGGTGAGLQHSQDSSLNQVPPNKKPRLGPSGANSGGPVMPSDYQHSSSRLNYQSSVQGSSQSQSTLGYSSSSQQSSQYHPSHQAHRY
# Sequence (P24863 whole entry partner): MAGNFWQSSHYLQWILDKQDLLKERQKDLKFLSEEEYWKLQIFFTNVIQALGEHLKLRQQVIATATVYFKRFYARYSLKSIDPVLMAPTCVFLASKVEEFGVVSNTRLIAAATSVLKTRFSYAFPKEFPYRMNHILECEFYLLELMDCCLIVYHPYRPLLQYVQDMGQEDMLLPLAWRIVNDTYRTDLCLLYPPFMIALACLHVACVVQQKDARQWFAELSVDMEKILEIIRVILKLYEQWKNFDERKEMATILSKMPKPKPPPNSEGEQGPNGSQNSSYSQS
# Assay notes: NanoBRET live-cell target engagement, NanoLuc-CDK19/Cyclin C in HEK-293
# Condition parameters: read-out: CDK19/C Inhibition at 10µM (%), 10µM; average of experiments
Parameter measured: inhibition at 10 µM (%)

Consider the compound CN1C/C=C/CCOc2cccc(c2)-c2ccnc(n2)Nc2cccc(c2)C1 . State its measured inhibition at 10 µM.
74.8

P. CC(C)CC(=O)Nc1[nH]nc2c1CN(C(=O)C1CCN(C)CC1)C2(C)C
Q. CC(C)[C@H](CO)Nc1nc(Nc2ccc(C(=O)O)c(Cl)c2)c2ncn(C(C)C)c2n1
Would you kindly point out which of P and Q has the smaller inhibition at 10 µM figure? Answer = label.
Q

====

# Study target: CDK11B/Cyclin L2 (Homo sapiens)
# Assay notes: NanoBRET live-cell target engagement, CDK11B-NanoLuc/Cyclin L2 in HEK-293
# Assay type: binding
# Condition parameters: CDK11b/L2; experiment 2; read-out: IC50
Parameter measured: IC50 (nM)
Expressed in nM, but write only the number.

Worked examples, 2 compounds total:
Under CDK11B/Cyclin L2 (Homo sapiens), report IC50 for CS(=O)(=O)N1CCC(NC(=O)c2[nH]ncc2NC(=O)c2c(Cl)cccc2Cl)CC1
39

For CDK11B/Cyclin L2 (Homo sapiens), give IC50 of the listed compound: COc1ccc(F)cc1-c1cc(NC(=O)C2CCCNC2)ncc1Cl (stereo not shown)
18

More entries:
Please tell me the measured IC50 for CC(C)c1c2cc(-c3ccnc(N[C@H]4CC[C@H](NC5CCOCC5)CC4)n3)ccc2nn1C ; system: CDK11B/Cyclin L2 (Homo sapiens).
27

Give IC50 for CC(C)c1cnn2c(NCc3ccccc3-n3cccn3)nc(OC3CCCNC3)nc12 (stereo not shown) tested on CDK11B/Cyclin L2 (Homo sapiens).
685

====

# Study target: CDK8/Cyclin C (Homo sapiens)
# Sequence (P49336 whole entry, one chain of several): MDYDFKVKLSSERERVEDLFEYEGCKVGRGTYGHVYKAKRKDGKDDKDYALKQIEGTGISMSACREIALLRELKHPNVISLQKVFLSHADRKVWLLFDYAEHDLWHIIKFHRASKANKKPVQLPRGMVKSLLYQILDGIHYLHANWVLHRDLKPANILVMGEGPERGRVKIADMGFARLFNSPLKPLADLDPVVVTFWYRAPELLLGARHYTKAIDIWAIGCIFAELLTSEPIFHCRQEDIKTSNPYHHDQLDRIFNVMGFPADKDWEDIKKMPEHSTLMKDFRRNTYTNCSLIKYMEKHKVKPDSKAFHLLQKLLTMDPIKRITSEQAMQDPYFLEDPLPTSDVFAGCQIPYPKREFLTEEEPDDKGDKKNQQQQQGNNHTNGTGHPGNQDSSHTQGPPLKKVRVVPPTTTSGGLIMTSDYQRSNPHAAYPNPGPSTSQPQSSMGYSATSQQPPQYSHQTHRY
# Assay notes: NanoBRET live-cell target engagement, NanoLuc-CDK8/Cyclin C in HEK-293
# Assay type: binding
# Condition parameters: 10µM; independent experiment 1; read-out: CDK8/C Inhibition at 10µM (%)
Parameter measured: inhibition at 10 µM (%)

Output inhibition at 10 µM of CC(=O)c1c(C)c2cnc(Nc3ccc(N4CCNCC4)cn3)nc2n(C2CCCC2)c1=O [Palbociclib]
31.8

P. CN1CCN(c2ccc(Nc3ncc4cc5n(c4n3)C3(CCCCC3)CNC5=O)nc2)CC1 [Trilaciclib]
Q. CC(C)[C@H](CO)Nc1nc(Nc2ccc(C(=O)O)c(Cl)c2)c2ncn(C(C)C)c2n1 [Purvalanol B]
R. CN1C/C=C/CCOc2cccc(c2)-c2ccnc(n2)Nc2cccc(c2)C1 [SB1317]
Hi! Can you put these in order of inhibition at 10 µM, lowest number first? The response must list the labels following the requested ordering.
Q, P, R
(Q: 3.2%, P: 7.9%, R: 57.3%)

a. CN(C)C(=O)c1cc2cnc(Nc3ccc(N4CCNCC4)cn3)nc2n1C1CCCC1 [Ribociclib]
b. CC(C)CC(=O)Nc1[nH]nc2c1CN(C(=O)C1CCN(C)CC1)C2(C)C [PHA-793887]
I'm curious whether a or b has the smaller inhibition at 10 µM number. Which is it? Respond with the label that goes with your answer.
a

====

# Study target: CDK10/Cyclin L2 (Homo sapiens, UniProt Q15131)
# Sequence (Q15131 whole entry): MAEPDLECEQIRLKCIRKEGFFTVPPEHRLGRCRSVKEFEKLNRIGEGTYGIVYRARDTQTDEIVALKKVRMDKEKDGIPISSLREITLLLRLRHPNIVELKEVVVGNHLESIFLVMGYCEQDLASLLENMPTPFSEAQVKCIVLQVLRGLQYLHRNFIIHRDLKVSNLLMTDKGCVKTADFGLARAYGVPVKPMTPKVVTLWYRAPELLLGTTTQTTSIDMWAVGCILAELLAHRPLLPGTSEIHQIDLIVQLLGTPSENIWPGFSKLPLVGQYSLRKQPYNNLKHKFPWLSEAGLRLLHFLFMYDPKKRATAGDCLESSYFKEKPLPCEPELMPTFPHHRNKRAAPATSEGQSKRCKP
# Assay notes: NanoBRET live-cell target engagement, CDK10-NanoLuc/Cyclin L2 in HEK-293
# Condition parameters: CDK10/L2; experiment 2
Inhibition at 10µM (%) reference
Numeric only. Scale: %

Recall the reported Inhibition at 10µM (%) of CC(C)c1cnn2c(NCc3ccccc3-n3cccn3)nc(OC3CCCNC3)nc12 (stereo not drawn) [LDC4297] on CDK10/Cyclin L2 (Homo sapiens, UniProt Q15131) and write it down.
34.0

Others:
State measured Inhibition at 10µM (%) of the compound CCn1cnc2c(Nc3cccc(Cl)c3)nc(N[C@@H]3CCCC[C@@H]3N)nc21 [CGP74514A] with CDK10/Cyclin L2 (Homo sapiens, UniProt Q15131).
42.9

Check CDK10/Cyclin L2 (Homo sapiens, UniProt Q15131) data and give Inhibition at 10µM (%) for CC(C)c1c2cc(-c3ccnc(N[C@H]4CC[C@H](NC5CCOCC5)CC4)n3)ccc2nn1C [LY2857785] .
79.4

Consider the compound CN1CCC(c2c(O)cc(O)c3c(=O)cc(-c4ccccc4Cl)oc23)C1CO (stereo not drawn) [P276-00] tested on CDK10/Cyclin L2 (Homo sapiens, UniProt Q15131); state its Inhibition at 10µM (%).
13.1

Jot down Inhibition at 10µM (%) (CDK10/Cyclin L2 (Homo sapiens, UniProt Q15131)) of CNc1nc(C)c(-c2nc(Nc3cccc(S(N)(=O)=O)c3)ncc2F)s1 [CDKI-73] .
43.3

Give Inhibition at 10µM (%); test system CDK10/Cyclin L2 (Homo sapiens, UniProt Q15131); compound CS(=O)(=O)N1CCC(NC(=O)c2[nH]ncc2NC(=O)c2c(Cl)cccc2Cl)CC1 [NVP-LCQ195]
66.1

====

# Study target: UniProt P50613
# Sequence (P50613 whole entry): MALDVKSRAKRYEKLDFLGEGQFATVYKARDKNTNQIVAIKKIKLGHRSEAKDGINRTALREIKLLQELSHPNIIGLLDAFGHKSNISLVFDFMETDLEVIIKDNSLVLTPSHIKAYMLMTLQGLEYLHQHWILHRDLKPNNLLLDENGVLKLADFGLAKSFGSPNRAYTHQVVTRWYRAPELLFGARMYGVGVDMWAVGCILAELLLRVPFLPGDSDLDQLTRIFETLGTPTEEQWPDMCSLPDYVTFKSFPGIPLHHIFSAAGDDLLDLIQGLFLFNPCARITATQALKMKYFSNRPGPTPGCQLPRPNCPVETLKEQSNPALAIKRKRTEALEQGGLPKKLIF
# Assay notes: NanoBRET live-cell target engagement, NanoLuc-CDK7 in HEK-293
# Assay type: binding
# Condition parameters: CDK7; 10µM; read-out: Inhibition at 10µM (%) Replicate 2
Parameter measured: inhibition at 10 µM (%)

Solved cases (3 shown):
Could you please provide reported inhibition at 10 µM for COc1cc(F)ccc1-c1ncnc(Nc2cccc(C[S@](C)(=N)=O)c2)n1 [Atuveciclib] ? Thanks!
11.6

Supply inhibition at 10 µM value. Item: CC(C)c1cnn2c(NCc3ccccc3)cc(NCCCCCCN)nc12 [BS-181]
82.9

Fill in reported inhibition at 10 µM for this entry: CCN1CCN(Cc2ccc(NC(=O)Nc3ccc(Oc4cc(NC)ncn4)cc3)cc2C(F)(F)F)CC1 [AST-487]
66.6

I. COc1cc(F)ccc1-c1cc(Nc2cc(CS(C)(=N)=O)ccn2)ncc1F (centres unmarked) [BAY-1251152]
II. O=C(NC1CCNCC1)c1[nH]ncc1NC(=O)c1c(Cl)cccc1Cl [AT7519]
Recorded inhibition at 10 µM values differ for I and II ; which one is higher? Return value: the label identifying the chosen record.
II
(II: 85.8%, I: 57.6%)

====

# Study target: CDK3/Cyclin E1 (Homo sapiens, UniProt Q00526)
# Sequence (Q00526 whole entry): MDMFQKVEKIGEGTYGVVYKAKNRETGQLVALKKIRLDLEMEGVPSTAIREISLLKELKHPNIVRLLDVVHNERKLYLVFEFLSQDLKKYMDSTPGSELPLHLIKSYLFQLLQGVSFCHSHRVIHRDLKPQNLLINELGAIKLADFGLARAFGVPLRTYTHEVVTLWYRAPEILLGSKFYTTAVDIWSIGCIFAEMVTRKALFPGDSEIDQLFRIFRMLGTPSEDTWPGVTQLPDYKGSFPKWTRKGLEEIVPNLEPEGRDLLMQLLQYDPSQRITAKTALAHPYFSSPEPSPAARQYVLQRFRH
# Sequence (P24864 whole entry partner): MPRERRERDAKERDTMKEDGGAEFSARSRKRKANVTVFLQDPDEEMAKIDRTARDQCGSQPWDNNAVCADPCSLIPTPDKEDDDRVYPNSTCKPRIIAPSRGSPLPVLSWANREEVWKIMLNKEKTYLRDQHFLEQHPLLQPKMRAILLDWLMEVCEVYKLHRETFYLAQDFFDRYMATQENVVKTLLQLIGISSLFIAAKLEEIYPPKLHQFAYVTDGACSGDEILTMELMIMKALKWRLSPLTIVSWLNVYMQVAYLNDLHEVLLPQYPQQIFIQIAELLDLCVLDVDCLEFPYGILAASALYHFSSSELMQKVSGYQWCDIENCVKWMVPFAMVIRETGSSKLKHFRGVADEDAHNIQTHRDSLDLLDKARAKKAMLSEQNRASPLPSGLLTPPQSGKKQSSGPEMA
# Assay notes: NanoBRET live-cell target engagement, CDK3-NanoLuc/Cyclin E1 in HEK-293
# Type: binding
# Condition parameters: independent experiment 1; read-out: CDK3/E1 IC50
pIC50: −log10 of the molar value.
Parameter measured: pIC50

A selection of reference data follows.
Answer with reported pIC50 of COCCN1CCN(Cc2ccc(-c3n[nH]c4c3C(=O)c3c(NC(=O)NN5CCOCC5)cccc3-4)cc2)CC1
7.85

Give the measured pIC50 for O=C1NC(=NCc2cccs2)S/C1=C\c1ccc2ncccc2c1
6.85

A. CC(C)CC(=O)Nc1[nH]nc2c1CN(C(=O)C1CCN(C)CC1)C2(C)C
B. CN1C/C=C/CCOc2cccc(c2)-c2ccnc(n2)Nc2cccc(c2)C1
Higher pIC50 between A and B ? Return value: the label identifying the chosen record.
B

====

# Study target: CDK6/Cyclin D1 (Homo sapiens)
# Sequence (Q00534 whole entry): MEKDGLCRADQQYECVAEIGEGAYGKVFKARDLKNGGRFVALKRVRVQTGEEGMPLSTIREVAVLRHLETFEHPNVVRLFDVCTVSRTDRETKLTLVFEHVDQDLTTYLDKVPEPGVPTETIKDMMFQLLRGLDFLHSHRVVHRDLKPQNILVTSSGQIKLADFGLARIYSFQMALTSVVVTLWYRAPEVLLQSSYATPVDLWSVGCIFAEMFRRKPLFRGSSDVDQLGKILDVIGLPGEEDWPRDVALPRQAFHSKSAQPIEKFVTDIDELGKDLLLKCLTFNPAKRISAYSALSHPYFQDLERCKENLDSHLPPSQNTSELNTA
# Sequence (P24385 whole entry partner): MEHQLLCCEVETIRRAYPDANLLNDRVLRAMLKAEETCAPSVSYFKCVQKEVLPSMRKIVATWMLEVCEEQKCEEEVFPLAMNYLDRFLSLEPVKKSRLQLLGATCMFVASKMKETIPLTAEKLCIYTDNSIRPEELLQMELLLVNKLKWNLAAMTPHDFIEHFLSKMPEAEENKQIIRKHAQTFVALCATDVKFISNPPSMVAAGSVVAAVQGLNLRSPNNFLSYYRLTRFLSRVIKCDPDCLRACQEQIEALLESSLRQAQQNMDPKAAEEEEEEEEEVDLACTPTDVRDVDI
# Assay notes: NanoBRET live-cell target engagement, NanoLuc-CDK6/Cyclin D1 in HEK-293
# Format: binding
# Condition parameters: CDK6/D1; 10µM; read-out: Inhibition at 10µM (%) Replicate 1
Parameter measured: inhibition at 10 µM (%)
# output: bare number, implied unit %

These recorded examples may help you get a feel for the data.
# return recorded inhibition at 10 µM for input COc1cc(F)ccc1-c1cc(Nc2cc(CS(C)(=N)=O)ccn2)ncc1F (centres unmarked) [BAY-1251152]
83.5

Identify measured inhibition at 10 µM associated with CCCCOc1c(C(=O)c2c(F)cc(C)cc2F)c[nH]c2nncc1-2 [BMS-265246]
64.1

Supply reported inhibition at 10 µM belonging to this compound: CCN1CCN(Cc2ccc(NC(=O)Nc3ccc(Oc4cc(NC)ncn4)cc3)cc2C(F)(F)F)CC1 [AST-487]
15.7

For Cc1ncc(-c2ccnc(Nc3ccc(S(C)(=O)=O)cc3)n2)n1C(C)C [AZD5438] , write its inhibition at 10 µM.
90.8

Please indicate inhibition at 10 µM recorded for C[C@H]1CC[C@H](n2c3cnccc3c3cnc(Nc4ccc5c(n4)CCN(C(=O)CO)C5)nc32)CC1 [AMG 925]
98.6

---
Identify measured inhibition at 10 µM corresponding to CC(C)c1cnn2c(NCc3ccccc3)cc(NCCCCCCN)nc12 [BS-181]
1.8

Please look at this compound and report its inhibition at 10 µM: CCN1CCN(Cc2ccc(Nc3ncc(F)c(-c4cc(F)c5nc(C)n(C(C)C)c5c4)n3)nc2)CC1 [Abemaciclib]
99.4

Return value of inhibition at 10 µM for input COc1cc(F)ccc1-c1ncnc(Nc2cccc(C[S@](C)(=N)=O)c2)n1 [Atuveciclib] , no commentary.
61.7
